Each record here notes measured growth.
Tested on: MCF7 breast
Assay: NCI-60 one-dose screen, 48 h (100 = growth as untreated, 0 = no growth, -100 = all killed)
Details: 10 µM unless noted
About 83,000 compounds went through this panel and 20% of them were active in at least one assay; those are over-represented in the sample as a whole.
State just the number; it will be interpreted in %.

Known growth results, listed for orientation:
// query Supply recorded growth for `OCCN1CCCCCCC1` here.
// result 99

// query Report growth, nothing else, for this compound: `C#CCOC(=O)Nc1ccccc1`
// result 87.4

// query Item OC1COC(OCc2ccccc2)C(O)C1O (stereo not given) : provide growth
// result 96

// query Name the recorded growth of the item CN(C)CC1CCCCCC(CN(C)C)C1=O (stereo not given) in your answer.
// result 24.7

// below: growth requested for another compound
// query Please supply the value of reported growth for the item `CCCCNc1ccc(Nc2ccccc2)cc1`
// result 67.3
